Test system: Enterobacter cloacae
Test: Antibacterial activity against Enterobacter cloacae
Type: functional
assay_readout: MIC90

1. CCO/N=C1\C(=O)N(CCCOc2ccc3oc(-c4ccc(OC)cc4)c(C(=O)OCC)c3c2)c2ccccc21 : 4 µg/mL
2. CCOC(=O)c1c(-c2ccc(OC)cc2)oc2ccc(OCCCCCN3C(=O)C(=O)c4cc(F)ccc43)cc12 : 1 µg/mL
3. CCOC(=O)c1c(-c2ccc(OC)cc2)oc2ccc(OCCCCN3C(=O)/C(=N\OC)c4cc(F)ccc43)cc12 : 0.5 µg/mL
4. CCOC(=O)c1c(-c2ccc(OC)cc2)oc2ccc(OCCCCCCN3C(=O)C(=O)c4cc(F)ccc43)cc12 : 0.5 µg/mL
5. CCOC(=O)c1c(-c2ccc(OC)cc2)oc2ccc(OCCCN3C(=O)/C(=N\OC)c4cc(OC)ccc43)cc12 : 0.25 µg/mL
6. CCOC(=O)c1c(-c2ccc(OC)cc2)oc2ccc(OCCCCCCN3C(=O)/C(=N\NC(N)=S)c4ccccc43)cc12 : 1 µg/mL
7. CCOC(=O)c1c(-c2ccc(OC)cc2)oc2ccc(OCCCCCN3C(=O)/C(=N\OC)c4ccccc43)cc12 : 0.25 µg/mL
8. CCO/N=C1\C(=O)N(CCCCCCOc2ccc3oc(-c4ccc(OC)cc4)c(C(=O)OCC)c3c2)c2ccccc21 : 0.5 µg/mL

====

Measured selectivity ratio by item
Test: Selectivity index, ratio of CC50 for African green monkey Vero cells to MIC for Mycobacterium tuberculosis H37Rv
Type: toxicity
Conditions: read-out: Selectivity Index
assay_readout: selectivity ratio

1. CO[C@H]1/C=C/O[C@@]2(C)Oc3c(C)c(O)c4c(O)c(c(/C=N/N5CCN(C)CC5)c(O)c4c3C2=O)NC(=O)/C(C)=C\C=C\[C@H](C)[C@H](O)[C@@H](C)[C@@H](O)[C@@H](C)[C@H](OC(C)=O)[C@@H]1C : 6560
2. CCOC(=O)c1c(-c2ccc(F)cc2)oc2ccc(OCCCCCCN3C(=O)/C(=N\OC)c4cc(F)ccc43)cc12 : 73
3. CCOC(=O)c1c(-c2ccccc2)oc2ccc(OCCCCN3C(=O)/C(=N\OC)c4cc(F)ccc43)cc12 : 516
4. CCOC(=O)c1c(-c2ccc(OC)cc2)oc2ccc(OCCCCCN3C(=O)/C(=N\OC)c4ccccc43)cc12 : 1030
5. CCO/N=C1\C(=O)N(CCCCCOc2ccc3oc(-c4ccc(OC)cc4)c(C(=O)OCC)c3c2)c2ccc(OC)cc21 : 102

====

Measured MIC90 by item
System: Staphylococcus epidermidis
Experiment: Antibacterial activity against methicillin-sensitive Staphylococcus epidermidis
Type: functional
assay_readout: MIC90 (µg/mL)

1) CCOC(=O)c1c(-c2ccc(F)cc2)oc2ccc(OCCCCCCN3C(=O)/C(=N\OC)c4cc(F)ccc43)cc12 : 0.25
2) CCOC(=O)c1c(-c2ccc(OC)cc2)oc2ccc(OCCCN3C(=O)/C(=N\OC)c4ccccc43)cc12 : 0.5
3) CCO/N=C1\C(=O)N(CCCCOc2ccc3oc(-c4ccc(OC)cc4)c(C(=O)OCC)c3c2)c2ccccc21 : 0.5
4) CCO/N=C1\C(=O)N(CCCCCOc2ccc3oc(-c4ccc(OC)cc4)c(C(=O)OCC)c3c2)c2ccc(F)cc21 : 1
5) CCOC(=O)c1c(-c2ccccc2)oc2ccc(OCCCN3C(=O)/C(=N\OC)c4cc(OC)ccc43)cc12 : 0.5
6) CCO/N=C1\C(=O)N(CCCCCCOc2ccc3oc(-c4ccc(OC)cc4)c(C(=O)OCC)c3c2)c2ccccc21 : 1
7) CCOC(=O)c1c(-c2ccc(OC)cc2)oc2ccc(OCCCCCN3C(=O)/C(=N\OC)c4ccccc43)cc12 : 0.5
8) CCOC(=O)c1c(-c2ccc(OC)cc2)oc2ccc(OCCCCCCN3C(=O)/C(=N\OC)c4cc(F)ccc43)cc12 : 0.5
